Item-by-item account of GI50
- System: T47D
- MEASUREMENT NOTES: NCI tumour cell line growth inhibition, 48 h
Active and inactive are the calls of the source. Cut-off read from the data, not from the text of the source: active = GI50 up to about 1.1 µM and inactive = higher.

Before answering, review these 5 worked examples.
Notebook: Fc1cc(C2=Nn3c(CNc4ccc(Cl)cc4)nnc3S/C2=C\c2ccc(-c3ccc(Cl)cc3)o2)c(Cl)cc1Cl , GI50 read as 41.7 µM (inactive)

Notebook: Cc1ccccc1Nc1nc2ccccc2nc1NS(=O)(=O)c1ccccc1 , GI50 read as > 100 µM (inactive)

Notebook: COc1cccc(/C=C/c2ccnc3ccccc23)c1OC , GI50 read as 8.17 µM (inactive)

Notebook: Cc1oc2c(c1C)S(=O)(=O)C(C#N)=CN2 , GI50 read as > 100 µM (inactive)

Notebook: CC1OC(OC2C(OC(=O)[C@@H]3CC(C)(C)C[C@@H]4C5=CC[C@@H]6[C@@]7(C)C[C@H](O)[C@H](OC8OC(CO)C(O)C(O)C8O)[C@@](C)(CO)C7[C@H](O)C[C@@]6(C)[C@]5(C)C[C@@H](O)[C@H]43)OCC(O)C2O)C(O)C(O)C1O (some centres not stated) , GI50 read as > 15 µM (inactive)

Next:
Notebook: NC(=O)CC1(O)C=CC(=O)C=C1 , GI50 read as > 100 µM (inactive)

Notebook: C/C=C(/CBr)CCC(Br)C(C)(C)Cl.C/C=C(\CBr)CCC(Br)C(C)(C)Cl (configuration not stated) , GI50 read as > 10 µM (inactive)

Notebook: Clc1nc2c(N3CCCC3)nc(N3CCNCC3)nc2[nH]1 , GI50 read as 16.9 µM (inactive)

Notebook: O=C(CC1(O)CCCCC1)OC1CCCC1 , GI50 read as > 100 µM (inactive)

Notebook: Cn1c2ccccc2n2c3ncccc3c(=O)cc12 , GI50 read as 55.7 µM (inactive)

Notebook: Cc1ccc(/C=N/Nc2cc(C)c3ccccc3n2)s1 , GI50 read as 5.48 µM (inactive)

Notebook: Cc1cc(C)nc(NS(=O)(=O)c2ccc(NC(=O)c3cc([N+](=O)[O-])cc([N+](=O)[O-])c3)cc2)n1 , GI50 read as 49.4 µM (inactive)

====

- System: HT-29
- MEASUREMENT NOTES: NCI tumour cell line growth inhibition, 48 h
Activity calls are given as the source filed them. Cut-off read from the data, not from the text of the source: active = GI50 up to about 1.1 µM and inactive = higher.
READOUT LABEL: GI50

Before answering, review these 2 worked examples.
Notebook: Cc1ccccc1Nc1nc2ccccc2nc1NS(=O)(=O)c1ccccc1 , GI50 read as > 100 µM (inactive)

Notebook: CCn1ncc(N=O)c1N , GI50 read as > 100 µM (inactive)

Next:
Notebook: C=CCCCN1C(=O)C2C3c4ccccc4C(C=O)(c4ccccc43)C2C1=O (configuration not stated) , GI50 read as 10 µM (inactive)

Notebook: COc1cc2c(c(OC)c1OC)-c1cccc(=O)cc1C(NC(C)=O)CC2 (configuration not stated) , GI50 read as 0.0721 µM (active)

Notebook: COc1ccc(-c2nc(-c3cnccn3)n(C/C=C/c3ccccc3)n2)cc1 , GI50 read as > 100 µM (inactive)

Notebook: Nc1ccc(-c2nc3ccccc3s2)cc1CO , GI50 read as > 100 µM (inactive)

Notebook: c1ccc(C2N=NN(c3ccccc3)C2N2CCCCC2)cc1 (configuration not stated) , GI50 read as > 100 µM (inactive)

Notebook: CCOc1ccc(Nc2nc(N)nc(N)c2N)cc1 , GI50 read as 17.8 µM (inactive)

====

- Tested on: SW-620
- MEASUREMENT NOTES: NCI tumour cell line growth inhibition, 48 h
The source made the active and inactive calls. Rule as the data show it: active = GI50 up to about 1.1 µM and inactive = higher.
Write down the outcome that applies. Available outcomes: active, inactive

A selection of reference data follows.
How did this test come out for CC(C)=CCC[C@@H](C)C1=C(O)C(=O)C(C)=C(N[C@H](C)c2ccccc2)C1=O ?
inactive

How did this test come out for Cn1c2c(c3ccccc31)CC(=S)N1CCCC(CC2O)C1 (stereo unspecified) ?
inactive

How did this test come out for c1cc2[se][se]c3c4cccc5[se][se]c(c(c1)c23)c54 ?
inactive

How did this test come out for COc1cc(C2c3cc4c(cc3[C@@H](N(C)C)[C@H]3COC(=O)C23)OCO4)cc(OC)c1O (stereo partly specified) ?
inactive

Next:
How did this test come out for Cc1ccc2nc3c(C)cc(=O)cc-3sc2c1 ?
inactive

How did this test come out for CC1(C)C(=O)N=C(N)N1C(=O)OCc1ccccc1 ?
inactive

How did this test come out for CC1C2CC(CC23OCC(CCl)O3)C1(C)C (stereo unspecified) ?
inactive

How did this test come out for O=C(CC(=O)Nc1ccccc1)NNC(Sc1ccccc1)c1cc(/N=N/c2ccc(Br)cc2)ccc1O (stereo unspecified) ?
active

How did this test come out for CCOC(=O)Cc1ccc(Nc2nc3cc(F)c(F)cc3nc2C(=O)OCC)cc1 ?
inactive

How did this test come out for Cc1ccc(NC(=O)c2nc(S)nc(N)c2-c2ccccc2C)cc1C ?
inactive

====

- Tested on: ACHN
- MEASUREMENT NOTES: NCI tumour cell line growth inhibition, 48 h
Active and inactive are the calls of the source. Cut-off read from the data, not from the text of the source: active = GI50 up to about 1.1 µM and inactive = higher.
Write down the outcome that applies. Available outcomes: active, inactive

How did this test come out for Nc1nc(N)c(N=O)c(Nc2ccc(I)cc2)n1 ?
inactive

Next:
How did this test come out for Fc1cc(C2=Nn3c(CNc4ccc(Cl)cc4)nnc3S/C2=C\c2ccc(-c3ccc(Cl)cc3)o2)c(Cl)cc1Cl ?
inactive

How did this test come out for O=C(NC(Nc1ccc(F)c(Cl)c1)(C(F)(F)F)C(F)(F)F)OCc1ccccc1 ?
inactive

How did this test come out for CCOC(=O)C1Cc2c(cc3c4c(cccc24)N(C(C)=O)C3)N(C)C1 (centres undefined) ?
inactive

How did this test come out for COC1(c2ccc(Cl)cc2)SC=C(C)n2c1noc2=O (centres undefined) ?
inactive

How did this test come out for O/N=C1\CCc2nonc2\C1=N/Nc1ccccc1 ?
inactive

How did this test come out for CC(=O)C1Cn2c(nc3ccccc32)C[Se]1 (centres undefined) ?
inactive

====

- System: LXFL 529
- MEASUREMENT NOTES: NCI tumour cell line growth inhibition, 48 h
Activity calls are given as the source filed them. No stated cut-off is given here; in the data, active = GI50 up to about 1.1 µM and inactive = higher.
READOUT LABEL: GI50

Before answering, review these 3 worked examples.
Notebook: CN(C)CCNC(=O)c1c2ccccc2cc2ccccc12 , GI50 read as 26.2 µM (inactive)

Notebook: N#CC1([N+](=O)[O-])C=C1c1ccccc1 (configuration not stated) , GI50 read as 32.1 µM (inactive)

Notebook: Clc1ccccc1/C=C/c1cscn1 , GI50 read as > 100 µM (inactive)

Next:
Notebook: Cc1ccc2nc3c(C)cc(=O)cc-3sc2c1 , GI50 read as 17.9 µM (inactive)

Notebook: COCCN1C2=CCCCC2=Nc2c(N)nc(N)nc21 , GI50 read as > 100 µM (inactive)

Notebook: NC(=O)c1ccc([N+](=O)[O-])cc1 , GI50 read as > 100 µM (inactive)

Notebook: CCOC(=O)C(C(=O)OCC)c1cc(-c2cc3ccccc3o2)oc(=O)c1C#N , GI50 read as 20.4 µM (inactive)

====

Item-by-item account of GI50
- Tested on: HCT-15
Unit µM implied. Number only.

Before answering, review these 2 worked examples.
Response field GI50 (HCT-15) for item Cc1cc(S(=O)(=O)Nc2nc3ccccc3c(=O)n2N)c(S)cc1Cl : 35.5

Response field GI50 (HCT-15) for item CC(C)(CN1CCCCC1)C(/C=C/c1ccccc1)=N\NC(=O)N/N=C(/C=C/c1ccccc1)C(C)(C)CN1CCCCC1 : 1.37

Next:
Response field GI50 (HCT-15) for item Cn1nc(-c2ccccc2)c(C(=O)/C=C/c2ccc(F)cc2)c(N2CCCC2)c1=O : 12.2

Response field GI50 (HCT-15) for item Cc1nc2nc3c(ncn3COCCO)c(O)n2c1C(c1ccccc1)(c1ccccc1)c1ccccc1 : 1.6

Response field GI50 (HCT-15) for item Cc1ccc(NC(=O)CC2SC(Nc3cccc(Cl)c3C)=NC2=O)cc1 (stereo unspecified) : 76.9

Response field GI50 (HCT-15) for item COC(=O)c1c(O)ccc2c1c1c(n2CCc2ccccc2)C(=O)c2ccccc2C1=O : 9.35

Response field GI50 (HCT-15) for item O=C(/C=C/c1ccccc1F)c1ccc(Cl)c(Cl)c1 : 37.1

====

- Test system: KM12
- MEASUREMENT NOTES: NCI tumour cell line growth inhibition, 48 h
Calls of active or inactive are those of the source. Cut-off read from the data, not from the text of the source: active = GI50 up to about 1.1 µM and inactive = higher.
READOUT LABEL: GI50

Notebook: CCCCCCCCCCCCOC(=N)N1CCOCC1 , GI50 read as 5.53 µM (inactive)

Next:
Notebook: COc1ccc(C)cc1Nc1nnc(-c2ccc(N)cc2)s1 , GI50 read as 46.2 µM (inactive)

Notebook: O=C(O)c1cc(=O)c2cc(C(=O)c3cccs3)c(Cl)c(Cl)c2o1 , GI50 read as > 100 µM (inactive)
